Target: 17β-hydroxysteroid dehydrogenase type 2 (17β-HSD type 2) (Homo sapiens, UniProt P37059)
Construct: expressed in transfected cells; host or cells: MCF-7
Sequence (P37059 whole entry): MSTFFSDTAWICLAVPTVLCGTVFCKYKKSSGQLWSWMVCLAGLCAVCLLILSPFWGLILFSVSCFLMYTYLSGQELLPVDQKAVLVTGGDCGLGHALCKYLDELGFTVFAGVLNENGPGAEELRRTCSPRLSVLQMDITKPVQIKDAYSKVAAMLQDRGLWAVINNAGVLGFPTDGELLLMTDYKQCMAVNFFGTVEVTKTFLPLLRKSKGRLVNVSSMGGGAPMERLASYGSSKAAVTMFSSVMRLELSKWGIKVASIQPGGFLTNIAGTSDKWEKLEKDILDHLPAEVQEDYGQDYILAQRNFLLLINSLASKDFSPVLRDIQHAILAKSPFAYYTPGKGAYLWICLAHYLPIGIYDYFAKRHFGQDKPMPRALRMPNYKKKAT
Assay: Inhibition of 17β-HSD type 2 in MCF-7 cells stably expressing the isoenzyme (tritium labeled estradiol conversion, HPLC)
Format: cell-based
Conditions: MCF7; 10 μM test compound; MCF-7 cells expressing 17β-HSD type 2; 2 nM tritium labeled estradiol; read-out: % Inhibition HSD2 10 μM
Quantity Name: inhibition at 10 µM (%)

COc1cc(-c2nc3sc4c(c3c(=O)n2Cc2ccccc2)CC(C)CC4)cc(OC)c1OC (stereo not drawn): 5.6
CCCc1nc2sc3c(O)cccc3c2c(=O)n1Cc1ccc(Br)o1: 85.9
CC(=O)OCc1nc2sc3c(c2c(=O)n1Cc1ccccc1)CCCC3: 21.1
COc1cccc(-c2nc3sc4c(O)cccc4c3c(=O)n2Cc2ccccc2)c1: 60.1
COc1cc(-c2nc3sc4c(O)cccc4c3c(=O)n2Cc2ccccc2)c(Br)c(OC)c1OC: 36.9
COc1cccc(-c2nc3sc4c(c3c(=O)n2Cc2ccccc2)CCCC4)c1: 7.8

(1) CCCCn1c(-c2cc(OC)c(OC)c(OC)c2)nc2sc3c(c2c1=O)CC(C)CC3 (stereo not drawn)
(2) COc1cc(-c2nc3sc4c(c3c(=O)n2CC(C)C)CCCC4=O)cc(OC)c1OC
(3) O=c1c2c(nc(-c3cccs3)n1Cc1ccccc1)sc1c(O)cccc12
Put the items in sequence by inhibition at 10 µM, from largest down. Write the labels, ordered according to the request.
3, 2, 1
(3: 80.3%, 2: 25.3%, 1: -6.3%)

(1) COc1cc(-c2nc3sc4c(Sc5ccccc5)c(C=O)ccc4c3c(=O)n2Cc2ccccc2)cc(OC)c1OC
(2) COCCn1c(-c2cc(OC)c(OC)c(OC)c2Br)nc2sc3c(c2c1=O)CCC(Br)C3=O (stereo not drawn)
(3) COc1cc(-c2nc3sc4c(c3c(=O)n2Cc2ccccc2)CC(C)CC4=O)cc(OC)c1OC (stereo not drawn)
(4) COc1cc(-c2nc3sc4c(c3c(=O)n2Cc2ccccc2)CCCC4=O)cc(OC)c1OC
Write the entries in order, lowest recorded inhibition at 10 µM first. Dear reader, please state the labels in the requested order.
1, 3, 4, 2
(1: -8.9%, 3: 14.2%, 4: 33.2%, 2: 48.7%)

(1) Cc1nc2sc3c(c2c(=O)n1-c1ccccc1)CCCC3=O
(2) COc1cc(-c2nc3sc4c(Cl)c(C=O)ccc4c3c(=O)n2Cc2ccccc2)c(Cl)c(OC)c1OC
Between 1 and 2 , which one has the lower reported inhibition at 10 µM value? Give the chosen item's label as your response.
1

These entries and their values trace back to patent US7524853B2.
